# TGI listing for each entry below
# Test system: HOP-62 NSCLC
# Test name: NCI tumour cell line growth inhibition, 48 h
Test readout: TGI (µM)

> print(dat)
                                    compound  test.readout  comparison.sign  recorded.value
 1                CCOC(=O)c1nc(C)oc1C(F)(F)F           TGI                >             100
 2                   COC(=O)CC(=O)OSc1ccccc1           TGI                =            53.4
 3  OCc1ccc2c(c1)CC1(C2)Cc2cc3c(cc2C1O)CCC3 (stereo not drawn)           TGI                =            17.7
 4  Cc1cc([N+](=O)[O-])c(C)c2c1[nH]c1ccc(Cl)cc12           TGI                >             100
 5  O=c1oc2ccccc2c(O)c1Cc1ccc(Cc2c(O)c3ccccc3oc2=O)cc1           TGI                >             100
 6  COc1nc2c(c(O)c(C)c(=O)n2OC2OCC(OC(C)=O)C(OC(C)=O)C2OC(C)=O)c(=O)n1C (stereo not drawn)           TGI                >             100
 7  C[n+]1cc2cc(O)c(O)cc2c2ccc3cc(O)c(O)cc3c21           TGI                =            10.8
 8  O=C(NCc1cccc(CNC(=O)Nc2nc3ccccc3[nH]2)c1)Nc1nc2ccccc2[nH]1           TGI                =            4.92
 9  Cc1cccc(NC(=O)c2sc3nc4c(cc3c2N)C(=O)CCC4)c1           TGI                >            43.7
10  COC(=O)C1C(C(=O)OC)C2C(=O)C3C(C(=O)OC)C(C(=O)OC)C3C(=O)C12 (stereo not drawn)           TGI                >             100
11         CN(/N=C1\C(=O)Nc2ccccc21)c1ccccc1           TGI                >             100
12  O=C(/C=C/C12c3ccccc3C(c3ccccc31)C1C(=O)NC(=O)C12)c1ccccn1 (stereo not drawn)           TGI                =            4.15
13  CC1(C)N=C(N)N=C(N)N1c1ccc(CCC(=O)Nc2ccc(S(=O)(=O)F)cc2)cc1           TGI                >             100
14  O=C(OCc1ccc2c(Br)cc(Br)c(O)c2n1)c1cc2ccccc2[nH]1           TGI                =            3.47
15  CNCc1cccc2c1OCCOCCOCCN(C)S(=O)(=O)c1ccc(cc1)-c1cnc(N)c(n1)C(=O)N2           TGI                =            4.04
16  C[C@]12Cc3cn[nH]c3C(=O)C1CC[C@@H]1C2CC[C@@]2(C)C1CC[C@@H]2O (stereo partly drawn)           TGI                >             100
17        Cc1nc(N)c(N2CCN(C#N)CC2)c(=O)[nH]1           TGI                >             100
18  Cc1ccc(S(=O)(=O)OCC/C(=C\[Si](C)(C)C)c2ccccc2)cc1           TGI                >             100
19   CCc1ccccc1NC(=O)c1cccc([N+](=O)[O-])c1O           TGI                =              58
20  O=C(Nc1cccc(-n2cc(-c3ccncc3)c(-c3cc(O)cc(Cl)c3)n2)c1)c1ccc(N2CCOCC2)c(C(F)(F)F)c1           TGI                =            58.2
21              NC1=CC(=O)c2c(O)ccc(O)c2C1=O           TGI                =            64.9
22         CN1CSC(=S)N(c2cccc(C(F)(F)F)c2)C1           TGI                =              70
23  N#C/C(=C\c1cc(OCc2ccccc2)c(OCc2ccccc2)cn1)C(N)=O           TGI                >             100

---

# Test system: IGROV1 ovarian
# Test name: NCI tumour cell line growth inhibition, 48 h
Test readout: TGI

> print(dat)
                                    compound  test.readout  recorded.value
 1         O=c1[nH]c(NCc2ccncc2)nc2nc[nH]c12           TGI        > 100 µM
 2  OC1(c2ccc(Cl)c(C(F)(F)F)c2)CCN(CCCC(c2ccc(F)cc2)c2ccc(F)cc2)CC1           TGI         2.05 µM
 3     CCCCCCN(CCCCCC)C(=S)N/N=C(\C)c1ccccn1           TGI         2.62 µM
 4  CCN1C(=S)N(CC)C2C1NC(=S)N2/N=C/C=C/c1ccccc1OC (stereo not given)           TGI        > 100 µM
 5       O=C(O)c1nc2ccc(C(F)(F)F)cc2[nH]c1=O           TGI        > 100 µM
 6             CCCCI(O)OS(=O)(=O)c1ccc(C)cc1           TGI         73.8 µM
 7  CN(C)CCCC1(c2ccc(F)cc2)OCc2cc(-c3cccc4[nH]ccc34)ccc21 (stereo not given)           TGI         2.73 µM
 8  Cc1nc(N)nc(CCC(=O)Nc2cccc(C(F)(F)F)c2)c1-c1ccc(Cl)cc1           TGI        > 100 µM
 9                         c1ccc2c(c1)SCCCS2           TGI        > 100 µM
10              CCOC(=O)/C=C/c1nc(C#N)c(N)o1           TGI        > 100 µM
11  COc1ccc(OC)c(/C=C/c2nc(=S)n(-c3ccc(Cl)cc3)[nH]2)c1           TGI        > 100 µM
12  O=[N+]([O-])c1ccccc1C1SCc2nc3ccccc3n21 (stereo not given)           TGI        > 100 µM
13  C[n+]1cc2cc(O)c(O)cc2c2ccc3cc(O)c(O)cc3c21           TGI         4.75 µM
14  O=[N+]([O-])c1ccc(C[P+]2(c3ccccc3)CCCCC2)cc1           TGI        > 100 µM
15  Cc1ccc2c(-c3ccnc(Nc4ccc5c(c4)OCCO5)n3)c(-c3ccc(C(F)(F)F)cc3)nn2n1           TGI         > 25 µM
16       Cn1c2ccccc2n2c3ncccc3c(=O)c(C#N)c12           TGI        > 100 µM
17  NS(=O)(=O)c1nnc(NC(=O)N(c2ccccc2)c2ccccc2)s1           TGI         52.6 µM
18  CNCc1cccc2c1OCCOCCOCCN(C)S(=O)(=O)c1ccc(cc1)-c1cnc(N)c(n1)C(=O)N2           TGI         12.8 µM
19  COc1cc2oc(-c3ccc(O)cc3)cc(=O)c2c(O)c1C1OC(CO)C(O)C(O)C1O (stereo not given)           TGI        > 100 µM
20  COc1ccc(C2Oc3ccc(Cl)cc3C=C2[N+](=O)[O-])cc1 (stereo not given)           TGI        > 100 µM
21  O=C(NCCNCCO)c1ccc2c(c1)oc1cc3ccccc3c(=O)n12           TGI         > 50 µM
22                       O=c1ccc2ccc(S)cc2o1           TGI        > 100 µM
23  COC(=O)c1ccccc1C1CN=NC12Cc1c(ccc(C)c1C)C2=O (stereo not given)           TGI        > 100 µM
24  N#C/C(=C\c1cc(OCc2ccccc2)c(OCc2ccccc2)cn1)C(N)=O           TGI        > 100 µM
25         CC(=O)Nc1nc(Cl)cc(NCC2(CO)CCC2)n1           TGI        > 100 µM
